- experiment-summary: Pharmacokinetic profile, cassette dosing protocol in dog (IV and PO)
- Assay type: in vivo
- details: male, beagle, dog, plasma, iv, 1 mg/kg, male beagle dogs, intravenous dose, read-out: Vb (IV) volume of distribution
Field: Vd. Provide a value for each of the molecules that follow.
Answer format: numeric, L/kg implied, no suffix.

GET /values?readout=Vd&item= CC[C@H]1OC(=O)[C@H](C)C(=O)[C@H](C)[C@@H](O[C@@H]2O[C@H](C)C[C@H](N(C)C)[C@H]2O)C(C)(OC/C=C/c2ccc(-c3nnn(C)n3)s2)C[C@@H](C)C(=O)[C@H](C)[C@H]2NC(=O)O[C@@]21C (stereo in doubt)
1.1

GET /values?readout=Vd&item= CC[C@H]1OC(=O)[C@@](C)(F)C(=O)[C@H](C)[C@@H](O[C@@H]2O[C@H](C)C[C@H](N(C)C)[C@H]2O)C(C)(OCC#Cc2ccc(-c3nnn(C)n3)s2)C[C@@H](C)C(=O)[C@H](C)[C@H]2NC(=O)O[C@@]21C (stereo in doubt)
3.1

GET /values?readout=Vd&item= CC[C@H]1OC(=O)[C@@](C)(F)C(=O)[C@H](C)[C@@H](O[C@@H]2O[C@H](C)C[C@H](N(C)C)[C@H]2O)C(C)(OC/C=C/c2ccc(-c3nnn(C)n3)s2)C[C@@H](C)C(=O)[C@H](C)[C@H]2NC(=O)O[C@@]21C (stereo in doubt)
2.3

GET /values?readout=Vd&item= CC[C@H]1OC(=O)[C@H](C)C(=O)[C@H](C)[C@@H](O[C@@H]2O[C@H](C)C[C@H](N(C)C)[C@H]2O)C(C)(OCC#Cc2ccc(-c3nnn(C)n3)s2)C[C@@H](C)C(=O)[C@H](C)[C@H]2NC(=O)O[C@@]21C (stereo in doubt)
1.2

Data credit: patent US20050267054A1
